Values compiled from patent US6831196B2.

# pKi measurements, system: sc-urokinase (Homo sapiens, UniProt P00749)
Numbers only, as −log10 of the molar value.

List reported pKi for each of these compounds:
1. CC(C)COC(=O)OC[C@@H](NS(=O)(=O)Cc1ccccc1)C(=O)NCC(=O)NCc1ccc(C(=N)N)cc1
2. N=C(N)c1ccc(CNC(=O)CNC(=O)[C@H](N)CO)cc1
3. N=C(N)c1ccc(CNC(=O)CNC(=O)[C@@H](N)CO)cc1

1. 6.30
2. 4.92
3. 4.68
